protocol-description: endothelial E-selectin expression blockers – imaging, HUVEC, immunofluorescence, MLSMR starter and 10KST1 sets, primary screen (AID 487);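 note: signal is fraction of cell area covered by stained E-selectin grains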
condition-notes: HUVEC TNFalpha-induced E-selectin immunofluorescence imaging, at 2 µM; hits give high values
Please use the following inhibition ranges when assigning a class: low bin (below -50%), mid bin (-50% to below -10%), high bin (-10% or more)

stdin: // bin(item) where item = Cc1noc(/C=C/N(C)C)c1S(=O)(=O)N1CCCC(C(=O)NC2CCCCC2)C1 (stereo not given)
stdout: high bin

stdin: // bin(item) where item = CCSc1nnc(N2C(=O)CC(c3ccsc3)C3=C2CC(C)(C)CC3=O)s1 (stereo not given)
stdout: mid bin

stdin: // bin(item) where item = COc1cccc(NC(=O)N2CCCC2C(=O)Nc2ccc3c(c2)OCO3)c1 (stereo not given)
stdout: low bin

stdin: // bin(item) where item = COc1ccc(C2(C(=O)Nc3c(C)n(C)n(-c4ccccc4)c3=O)CCCC2)cc1OC
stdout: low bin

stdin: // bin(item) where item = CCCOc1ccc(/C(O)=C2/C(=O)C(=O)N(CCCOC)C2c2ccncc2)cc1 (stereo not given)
stdout: high bin

Next:
stdin: // bin(item) where item = CCOC(=O)CSc1nnc(-c2cccnc2)n1Cc1ccccc1
stdout: low bin

stdin: // bin(item) where item = COc1ccc(C)cc1NC(=O)CNC(=O)Cn1ccc2ccccc2c1=O
stdout: high bin

stdin: // bin(item) where item = CC(NC(=O)c1ccc2c(c1)OCO2)C(c1cccs1)N1CCOCC1 (stereo not given)
stdout: mid bin
